EXPERIMENTAL_TARGET: PI3Kδ (Homo sapiens (Human), UniProt O00329)
Sequence (O00329 whole entry): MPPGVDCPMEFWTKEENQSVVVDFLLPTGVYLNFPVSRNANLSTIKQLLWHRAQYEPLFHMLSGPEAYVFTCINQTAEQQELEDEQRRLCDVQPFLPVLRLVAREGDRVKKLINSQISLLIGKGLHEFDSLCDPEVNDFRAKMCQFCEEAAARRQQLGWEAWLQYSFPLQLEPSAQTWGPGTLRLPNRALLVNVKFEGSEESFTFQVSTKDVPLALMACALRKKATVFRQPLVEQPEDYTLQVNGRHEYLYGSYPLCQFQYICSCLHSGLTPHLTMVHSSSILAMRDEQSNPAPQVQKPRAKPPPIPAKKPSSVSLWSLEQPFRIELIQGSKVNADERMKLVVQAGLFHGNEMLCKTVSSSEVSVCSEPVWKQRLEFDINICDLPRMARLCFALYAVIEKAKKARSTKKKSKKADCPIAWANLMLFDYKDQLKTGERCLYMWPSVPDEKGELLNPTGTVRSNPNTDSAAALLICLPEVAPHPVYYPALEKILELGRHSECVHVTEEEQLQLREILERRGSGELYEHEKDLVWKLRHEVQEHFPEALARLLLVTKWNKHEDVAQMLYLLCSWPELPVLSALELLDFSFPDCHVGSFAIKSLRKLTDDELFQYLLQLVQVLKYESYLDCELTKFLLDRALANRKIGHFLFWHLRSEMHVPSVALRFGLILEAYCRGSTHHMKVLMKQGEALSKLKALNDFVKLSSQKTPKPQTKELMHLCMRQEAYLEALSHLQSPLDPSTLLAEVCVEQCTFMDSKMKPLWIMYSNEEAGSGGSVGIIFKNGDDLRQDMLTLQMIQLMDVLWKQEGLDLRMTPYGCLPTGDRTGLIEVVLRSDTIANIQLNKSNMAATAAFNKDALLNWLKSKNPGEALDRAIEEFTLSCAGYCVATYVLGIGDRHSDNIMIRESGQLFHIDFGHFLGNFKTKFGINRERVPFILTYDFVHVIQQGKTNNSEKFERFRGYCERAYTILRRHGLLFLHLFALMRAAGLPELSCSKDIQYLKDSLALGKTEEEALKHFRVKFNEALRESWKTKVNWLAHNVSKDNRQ
Sequence (P27986 whole entry partner): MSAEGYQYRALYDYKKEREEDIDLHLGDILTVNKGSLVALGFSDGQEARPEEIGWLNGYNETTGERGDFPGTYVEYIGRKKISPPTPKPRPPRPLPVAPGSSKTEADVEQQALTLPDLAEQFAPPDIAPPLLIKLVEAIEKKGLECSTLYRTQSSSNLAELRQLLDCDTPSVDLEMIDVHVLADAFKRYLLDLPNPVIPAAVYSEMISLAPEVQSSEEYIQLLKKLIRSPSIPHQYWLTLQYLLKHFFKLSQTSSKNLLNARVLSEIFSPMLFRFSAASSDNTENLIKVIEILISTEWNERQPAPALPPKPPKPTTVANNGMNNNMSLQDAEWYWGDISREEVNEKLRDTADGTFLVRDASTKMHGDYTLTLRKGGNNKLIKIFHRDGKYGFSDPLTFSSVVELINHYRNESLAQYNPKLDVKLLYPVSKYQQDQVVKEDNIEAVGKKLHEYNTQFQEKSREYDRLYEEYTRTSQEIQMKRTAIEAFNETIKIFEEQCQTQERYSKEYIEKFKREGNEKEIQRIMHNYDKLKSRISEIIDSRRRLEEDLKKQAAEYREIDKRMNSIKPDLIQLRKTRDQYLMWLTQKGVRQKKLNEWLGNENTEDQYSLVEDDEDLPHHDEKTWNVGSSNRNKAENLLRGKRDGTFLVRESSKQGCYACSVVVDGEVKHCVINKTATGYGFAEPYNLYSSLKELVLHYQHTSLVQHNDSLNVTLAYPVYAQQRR
pIC50: −log10 of the molar value.
MEASUREMENT_NAME: pIC50

>  <MOLECULE>
Cc1nn(C(C)c2cc(Cl)c(F)c3c2OC(C)CN(S(C)(=O)=O)C3)c2ncnc(N)c12 (single isomer, unassigned) [Example 38]

>  <RESULT>
< 6.10

$$$$
>  <MOLECULE>
CNC(=O)C1CC(N2Cc3c(C#N)c(Cl)cc(C(C)n4nc(C)c5c(N)ncnc54)c3OC(C)C2)C1 (single isomer, unassigned) [Example 114]

>  <RESULT>
≥ 7.00

$$$$

Which pIC50 reading was recorded for the molecule Cc1nn(C(C)c2cc(Cl)c(F)c3c2O[C@@H](C)CN(C2CC(C(N)=O)C2)C3)c2ncnc(N)c12 (single isomer, unassigned) ?
≥ 7.00

CCC(=O)N1CC(N2CCOc3c(C(C)n4nc(C)c5c(N)ncnc54)cc(Cl)c(C#N)c3C2)C1 (stereo not drawn) , same question.
≥ 7.00

CCC1CN(CCO)Cc2c(C#N)c(Cl)cc(C(C)n3nc(C)c4c(N)ncnc43)c2O1 (single isomer, unassigned) [Example 70] , same question.
≥ 7.00

CCNC(=O)N1CC(N2Cc3c(C#N)c(Cl)cc(C(C)n4nc(C)c5c(N)ncnc54)c3OC(C)C2)C1 (single isomer, unassigned) , same question.
≥ 7.00

Data origin: patent US9944646B2
